The values you see were collected from patent EP3800188A1.

- Tested On: human IRAK4 (Homo sapiens, UniProt Q9NWZ3)
- Sequence (Q9NWZ3 1-460): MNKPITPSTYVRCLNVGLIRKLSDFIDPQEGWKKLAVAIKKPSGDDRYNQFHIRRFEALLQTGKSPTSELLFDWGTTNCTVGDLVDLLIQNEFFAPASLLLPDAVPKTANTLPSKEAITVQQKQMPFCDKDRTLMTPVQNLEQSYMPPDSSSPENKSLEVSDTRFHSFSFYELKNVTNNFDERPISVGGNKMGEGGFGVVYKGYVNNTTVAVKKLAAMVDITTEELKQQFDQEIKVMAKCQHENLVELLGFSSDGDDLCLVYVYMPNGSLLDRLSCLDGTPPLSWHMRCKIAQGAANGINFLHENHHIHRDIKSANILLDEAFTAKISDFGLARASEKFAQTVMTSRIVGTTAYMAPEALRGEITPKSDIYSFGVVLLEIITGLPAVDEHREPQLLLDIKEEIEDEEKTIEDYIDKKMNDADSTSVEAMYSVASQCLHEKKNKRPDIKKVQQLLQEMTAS
For each record, write down the corresponding IC50.

[ask] Would you kindly share the measured IC50 for CC1(N2CCOCC2)CN(c2nc(N[C@H]3C[C@@H](O)C3)nc3c2cnn3-c2cccc(C(F)(F)F)c2)C1 ?
[reply] 9.61 nM

[ask] Name the reported IC50 value associated with the compound C[C@]1(O)C[C@H](Nc2nc(N3C[C@@H](O)[C@H](O)C3)c3cnn(-c4cccc(C(F)(F)F)c4)c3n2)C1
[reply] 3.72 nM

[ask] Endpoint output: IC50 of CC(C)(O)C1CCN(c2nc(N[C@@H]3CNC(=O)C3)nc3c2cnn3-c2cccc(OC(F)F)c2)CC1 . Value?
[reply] 8.06 nM

[ask] Recorded IC50 for CCC1(O)CN(c2nc(N[C@H]3CNC(=O)C3)nc3c2cnn3-c2cccc(C(F)(F)F)c2)C1 , please?
[reply] 167 nM

[ask] Param item = O[C@@H]1CN(c2nc(N[C@H]3C[C@H](O)C3)nc3c2cnn3-c2cccc(C(F)(F)F)c2)C[C@H]1F ; retrieve measured IC50.
[reply] 3.94 nM

[ask] Endpoint output: IC50 of O[C@@H]1CCN(c2nc(N[C@H]3C[C@H](O)C3)nc3c2cnn3-c2cccc(C(F)F)c2)C1 . Value?
[reply] 16.5 nM

[ask] Consider the compound shown here: CC(C)(O)C1CCN(c2nc(N[C@H]3C[C@@](C)(O)C3)nc3c2cnn3-c2cccc(C(F)(F)F)c2)CC1 What is its recorded IC50?
[reply] 24.7 nM
